target: T1, mouse PD-L1 on CHO cells that stably expressed mouse PD-L1 (mouse, UniProt Q9EP73 19-290); assay: flow cytometry competition: biotin-labelled mouse PD-1-Fc at a subsaturated concentration on CHO cells stably expressing mouse PD-L1, antibody titrated, streptavidin R-PE detection
T1 construct: whole, on cells; also called CHO cells expressing mouse PD-L1
T1 sequence (Q9EP73 19-290): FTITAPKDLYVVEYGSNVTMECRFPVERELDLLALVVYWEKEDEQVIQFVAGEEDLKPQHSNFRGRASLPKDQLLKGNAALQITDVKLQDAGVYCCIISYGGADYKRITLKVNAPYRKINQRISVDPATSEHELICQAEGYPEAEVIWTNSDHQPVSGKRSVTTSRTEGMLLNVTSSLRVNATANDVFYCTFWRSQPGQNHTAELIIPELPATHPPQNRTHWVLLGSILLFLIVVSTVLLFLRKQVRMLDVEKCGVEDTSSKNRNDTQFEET
Endpoint: IC50 (read off the curve)

Binder | IC50 (read off the curve)
PD-L1 antibody YN-036 (antibody, human IgG1, lambda, V domains shown, full-length IgG1,lambda) VH: QVQLVQSGAEVKKPGSSVKVSCKASRGPFSTYAISWVRQAPGQGLEWMGRIIPILGIANYAQKFQGRVTITADKSTSTAYMELSSLRSEDTAVYYCARTMGEYSYGNYDYWGQGTLVTVSS VL: QSALTQPASVSGSPGQSITISCTGTVSEVGGYNEVSWYQQHPGKAPKLMIYGNSNRPSGVSNRFSGSKSGNTASLTISGLQAEDEADYYCQSYDSSLSGTVFGGGTKLTVLG | ~2 nM

Note: attention shifts to another entry.
Q: Give the value of IC50 (read off the curve) reported for the following: PD-L1 antibody YN-037 (antibody, human IgG1, lambda, V domains shown, full-length IgG1,lambda) VH: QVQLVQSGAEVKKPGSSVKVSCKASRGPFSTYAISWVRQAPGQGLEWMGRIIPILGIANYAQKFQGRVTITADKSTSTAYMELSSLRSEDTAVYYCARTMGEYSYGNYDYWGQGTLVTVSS VL: QSALTQPASVSGSPGQSITISCTGTSSSVGGYREVSWYQQHPGKAPKLMIYENSIRPSGVSHRFSGSKSGNTASLTISGLQAEDEADYYCQSYDSSLSGTVFGGGTKLTVLG
A: ~4 nM
